Target: HLA-A*02:01 (Homo sapiens, UniProt P04439, D140Y/D185E/D98H/E176V/E277Q/G131W/G231S/I119V/I121R/I166T/I218V/L300P/L318F/N151K/N90K/P208A/P217A/Q86G/Q94H/R138H/R169H/T345S)
Test: MHC binding assay (UV-ligand exchange, beta2m ELISA)
Details: peptide exchange yield
From the text: Candidate peptides for T cell based therapies according to the present invention were further tested for their MHC binding capacity (affinity). The individual peptide-MHC complexes were produced by UV-ligand exchange, where a UV-sensitive peptide is cleaved upon UV-irradiation, and exchanged with the peptide of interest as analyzed. Only peptide candidates that can effectively bind and stabilize the peptide-receptive MHC molecules prevent dissociation of the MHC complexes. […]
OBSERVABLE: Peptide exchange

INSERT INTO assay_data (substance, observable, measured_value) VALUES
  ('221 (SLLDLYQL; listed as Homo sapiens) [compound 221]', 'Peptide exchange', '++ (>20% = ++)'),
  ('216 (IMFDDAIERA; listed as Homo sapiens) [compound 216]', 'Peptide exchange', '++++ (>75% = ++++)'),
  ('61 (YMVHIQVTL; listed as Homo sapiens) [compound 61]', 'Peptide exchange', '++++ (>75% = ++++)'),
  ('4 (ALFKAWAL; listed as Homo sapiens) [compound 4]', 'Peptide exchange', '++++ (>75% = ++++)'),
  ('8 (YLVTKVVAV; listed as Homo sapiens) [compound 8]', 'Peptide exchange', '++++ (>75% = ++++)'),
  ('220 (RMTTQLLLL; listed as Homo sapiens) [compound 220]', 'Peptide exchange', '+++ (>50 = +++)'),
  ('241 (RQPNILVHL; listed as Homo sapiens) [compound 241]', 'Peptide exchange', '++ (>20% = ++)'),
  ('1 (MIPTFTALL; listed as Homo sapiens) [compound 1]', 'Peptide exchange', '+++ (>50 = +++)'),
  ('231 (SVTESTHHL; listed as Homo sapiens) [compound 231]', 'Peptide exchange', '+++ (>50 = +++)');
